target system: cGMP-inhibited 3',5'-cyclic phosphodiesterase 3A (Homo sapiens)
Sequence (Q14432 whole entry): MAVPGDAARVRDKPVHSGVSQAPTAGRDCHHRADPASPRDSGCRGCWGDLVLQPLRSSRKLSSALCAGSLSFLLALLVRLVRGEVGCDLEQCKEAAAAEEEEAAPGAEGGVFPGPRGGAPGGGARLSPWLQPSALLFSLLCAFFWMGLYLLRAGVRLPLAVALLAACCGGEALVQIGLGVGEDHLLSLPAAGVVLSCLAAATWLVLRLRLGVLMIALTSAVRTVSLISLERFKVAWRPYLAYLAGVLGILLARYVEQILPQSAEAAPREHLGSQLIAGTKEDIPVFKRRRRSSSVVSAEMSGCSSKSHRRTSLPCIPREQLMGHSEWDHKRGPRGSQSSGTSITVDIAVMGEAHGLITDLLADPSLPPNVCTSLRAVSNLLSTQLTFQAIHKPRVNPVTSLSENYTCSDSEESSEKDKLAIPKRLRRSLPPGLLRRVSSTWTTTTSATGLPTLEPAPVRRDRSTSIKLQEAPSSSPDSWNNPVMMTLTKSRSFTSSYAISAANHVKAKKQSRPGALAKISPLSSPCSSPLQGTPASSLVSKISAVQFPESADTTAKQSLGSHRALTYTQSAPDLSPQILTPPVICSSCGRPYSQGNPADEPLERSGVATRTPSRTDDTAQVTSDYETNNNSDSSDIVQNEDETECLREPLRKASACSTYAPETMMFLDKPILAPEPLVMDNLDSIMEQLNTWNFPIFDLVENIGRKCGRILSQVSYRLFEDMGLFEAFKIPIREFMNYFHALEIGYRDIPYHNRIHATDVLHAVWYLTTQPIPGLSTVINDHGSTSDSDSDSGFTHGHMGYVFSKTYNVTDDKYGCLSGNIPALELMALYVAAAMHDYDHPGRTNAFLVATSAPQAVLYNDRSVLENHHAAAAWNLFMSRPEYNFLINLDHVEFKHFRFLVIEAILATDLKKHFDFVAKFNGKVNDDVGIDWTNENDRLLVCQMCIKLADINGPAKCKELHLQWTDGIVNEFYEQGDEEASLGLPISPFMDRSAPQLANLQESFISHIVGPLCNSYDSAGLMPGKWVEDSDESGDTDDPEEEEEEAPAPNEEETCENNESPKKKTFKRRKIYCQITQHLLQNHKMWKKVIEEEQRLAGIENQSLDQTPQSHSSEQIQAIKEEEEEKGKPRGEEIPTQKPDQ
Quick reference for IC50 among some compounds
Report as a plain number; the unit µM is understood.

State recorded IC50 with cGMP-inhibited 3',5'-cyclic phosphodiesterase 3A (Homo sapiens), entry Cc1cc(=O)[nH]c2ccc(OCc3cccc(C(=O)N4CCCCC4)c3)cc12 , no comment.
0.66

State recorded IC50 with cGMP-inhibited 3',5'-cyclic phosphodiesterase 3A (Homo sapiens), entry Cc1cc(=O)[nH]c2ccc(OCc3cccc(C(=O)N4CCC(=O)CC4)c3)cc12 , no comment.
1.26

State recorded IC50 with cGMP-inhibited 3',5'-cyclic phosphodiesterase 3A (Homo sapiens), entry CCN1CCN(C(=O)c2cccc(COc3ccc4[nH]c(=O)cc(C)c4c3)c2)CC1 , no comment.
1.44

State recorded IC50 with cGMP-inhibited 3',5'-cyclic phosphodiesterase 3A (Homo sapiens), entry Cc1cc(=O)[nH]c2ccc(OCc3cccc(C(=O)N4CCCC4)c3)cc12 , no comment.
0.64

###

Reported log10(IC50), cGMP-inhibited 3',5'-cyclic phosphodiesterase 3B (Homo sapiens, UniProt Q13370).
Quick note: numbers are log10 of IC50, with µM as the unit.

Worked examples follow.
State recorded log10(IC50) with cGMP-inhibited 3',5'-cyclic phosphodiesterase 3B (Homo sapiens, UniProt Q13370), entry Cc1cc(=O)[nH]c2ccc(OCc3cccc(C(=O)N4CCC(=O)CC4)c3)cc12 , no comment.
Sequence (Q13370 whole entry): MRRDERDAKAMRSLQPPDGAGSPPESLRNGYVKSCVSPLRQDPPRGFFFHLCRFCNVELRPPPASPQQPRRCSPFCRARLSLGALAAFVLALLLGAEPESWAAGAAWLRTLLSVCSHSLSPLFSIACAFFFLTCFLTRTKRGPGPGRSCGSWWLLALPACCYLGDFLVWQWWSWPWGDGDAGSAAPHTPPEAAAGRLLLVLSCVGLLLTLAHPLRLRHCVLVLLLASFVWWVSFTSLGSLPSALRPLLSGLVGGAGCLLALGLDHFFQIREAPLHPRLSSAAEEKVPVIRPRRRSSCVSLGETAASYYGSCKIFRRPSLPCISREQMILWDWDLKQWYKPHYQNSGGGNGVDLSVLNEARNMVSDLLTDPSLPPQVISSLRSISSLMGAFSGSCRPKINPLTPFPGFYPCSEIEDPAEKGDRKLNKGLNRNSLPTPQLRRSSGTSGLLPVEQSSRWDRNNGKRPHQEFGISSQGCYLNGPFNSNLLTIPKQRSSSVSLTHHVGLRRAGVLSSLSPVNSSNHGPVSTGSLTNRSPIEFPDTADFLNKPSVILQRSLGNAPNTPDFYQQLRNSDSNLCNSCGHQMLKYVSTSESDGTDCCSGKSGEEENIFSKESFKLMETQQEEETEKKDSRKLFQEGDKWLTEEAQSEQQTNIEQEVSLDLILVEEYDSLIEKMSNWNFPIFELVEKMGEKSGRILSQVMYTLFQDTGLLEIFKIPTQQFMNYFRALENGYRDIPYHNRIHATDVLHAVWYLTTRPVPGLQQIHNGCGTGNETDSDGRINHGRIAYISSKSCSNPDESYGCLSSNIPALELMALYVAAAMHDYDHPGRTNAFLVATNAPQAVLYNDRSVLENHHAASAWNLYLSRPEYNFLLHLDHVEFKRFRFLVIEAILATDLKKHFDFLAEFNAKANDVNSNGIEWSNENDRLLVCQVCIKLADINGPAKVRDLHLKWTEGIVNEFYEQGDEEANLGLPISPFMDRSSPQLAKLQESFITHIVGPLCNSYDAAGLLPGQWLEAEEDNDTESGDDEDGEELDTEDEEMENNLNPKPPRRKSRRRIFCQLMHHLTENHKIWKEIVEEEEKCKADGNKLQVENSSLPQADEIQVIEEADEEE
0.06

State recorded log10(IC50) with cGMP-inhibited 3',5'-cyclic phosphodiesterase 3B (Homo sapiens, UniProt Q13370), entry CCN1CCN(C(=O)c2cccc(COc3ccc4[nH]c(=O)cc(C)c4c3)c2)CC1 , no comment.
0.29

State recorded log10(IC50) with cGMP-inhibited 3',5'-cyclic phosphodiesterase 3B (Homo sapiens, UniProt Q13370), entry Cc1cc(=O)[nH]c2ccc(OCc3cccc(C(=O)N4CCCCC4)c3)cc12 , no comment.
0.24

State recorded log10(IC50) with cGMP-inhibited 3',5'-cyclic phosphodiesterase 3B (Homo sapiens, UniProt Q13370), entry Cc1cc(=O)[nH]c2ccc(OCc3cccc(C(=O)N4CCN(C)CC4)c3)cc12 , no comment.
0.55

State recorded log10(IC50) with cGMP-inhibited 3',5'-cyclic phosphodiesterase 3B (Homo sapiens, UniProt Q13370), entry Cc1cc(=O)[nH]c2ccc(OCc3cccc(C(=O)N4CCCC4)c3)cc12 , no comment.
0.08

Turning now to a further record.
State recorded log10(IC50) with cGMP-inhibited 3',5'-cyclic phosphodiesterase 3B (Homo sapiens, UniProt Q13370), entry COc1ccc(C(=O)N2CCN(c3ccc4c(c3)CCC(=O)N4)CC2)cc1OC , no comment.
1.12
